The measurements presented in this section are drawn from paper PMC8691691.

Molecular target: GlyT2 G214L mutant (Rattus norvegicus, UniProt P58295, G214L)
Construct: expressed in transfected cells; host or cells: COS7
Sequence (P58295 1-799 G214L): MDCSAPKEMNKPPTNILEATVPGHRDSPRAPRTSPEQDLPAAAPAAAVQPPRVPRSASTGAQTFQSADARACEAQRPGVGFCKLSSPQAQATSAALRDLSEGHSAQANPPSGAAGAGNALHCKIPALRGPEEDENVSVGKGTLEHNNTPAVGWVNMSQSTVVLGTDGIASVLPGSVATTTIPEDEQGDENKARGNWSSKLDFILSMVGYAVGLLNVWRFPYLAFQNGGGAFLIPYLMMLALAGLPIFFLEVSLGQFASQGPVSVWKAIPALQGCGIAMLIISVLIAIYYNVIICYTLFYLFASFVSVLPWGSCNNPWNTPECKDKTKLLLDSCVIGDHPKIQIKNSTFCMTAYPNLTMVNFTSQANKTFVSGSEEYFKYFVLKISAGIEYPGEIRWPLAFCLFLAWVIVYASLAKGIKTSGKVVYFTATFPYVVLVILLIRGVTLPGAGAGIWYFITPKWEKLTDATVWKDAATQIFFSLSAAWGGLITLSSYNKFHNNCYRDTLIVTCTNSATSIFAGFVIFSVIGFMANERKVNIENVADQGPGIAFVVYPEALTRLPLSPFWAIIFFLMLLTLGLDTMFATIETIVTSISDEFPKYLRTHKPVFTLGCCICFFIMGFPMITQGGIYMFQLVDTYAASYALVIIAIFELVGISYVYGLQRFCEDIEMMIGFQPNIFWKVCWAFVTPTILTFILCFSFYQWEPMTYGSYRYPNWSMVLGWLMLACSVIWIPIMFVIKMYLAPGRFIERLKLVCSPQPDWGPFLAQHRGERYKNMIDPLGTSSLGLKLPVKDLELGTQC
Assay: [3H]glycine transport by GlyT2 mutant in COS7 cells
Type: cell-based
Conditions: read-out: IC50 (Table S1)
READOUT: IC50

Lab note: GlyT2 G214L mutant (Rattus norvegicus, UniProt P58295, G214L) assay, enter IC50 for N[C@@H](COC(c1cccc(F)c1)c1ccccc1OCc1ccccc1)C(=O)O (stereo partly shown) here
0.038 µM

----------
target: GlyT2 (Rattus norvegicus, UniProt P58295); construct: expressed in transfected cells; host or cells: COS7; assay: [3H]glycine transport by recombinant GlyT2 expressed in COS7 cells; format: cell-based; settings: 150 mM NaCl; read-out: IC50, inhibition of [3H]-glycine transport, regular sodium
READOUT: pIC50
Just so you know, pIC50 here is -log10 of the concentration in molar units; reply with that number alone.

Please report the measured pIC50 for N[C@@H](COC(c1cccc(F)c1)c1ccccc1OCc1ccccc1)C(=O)O (stereo partly shown) tested on GlyT2 (Rattus norvegicus, UniProt P58295).
7.66

----------
target: GlyT2 L576I mutant (Rattus norvegicus, UniProt P58295, L576I); experiment: [3H]glycine transport by GlyT2 mutant in COS7 cells; conditions: read-out: IC50 (Table S1)
Listed next: entries and their corresponding pIC50.
Scale: pIC50 equals -log10([C]), with [C] in mol/L.

MOLECULE	TARGET	pIC50
COc1cc(C(=O)NCC2(N(C)C)CCCC2)cc(OC)c1OCc1ccccc1	GlyT2 L576I mutant (Rattus norvegicus, UniProt P58295, L576I)	6.95

Give pIC50 for the following molecule: N[C@@H](COC(c1cccc(F)c1)c1ccccc1OCc1ccccc1)C(=O)O (some centres unmarked)
7.00

----------
Target: GlyT2 (Rattus norvegicus, UniProt P58295)
Construct: expressed in transfected cells; host or cells: COS7
Sequence (P58295 1-799): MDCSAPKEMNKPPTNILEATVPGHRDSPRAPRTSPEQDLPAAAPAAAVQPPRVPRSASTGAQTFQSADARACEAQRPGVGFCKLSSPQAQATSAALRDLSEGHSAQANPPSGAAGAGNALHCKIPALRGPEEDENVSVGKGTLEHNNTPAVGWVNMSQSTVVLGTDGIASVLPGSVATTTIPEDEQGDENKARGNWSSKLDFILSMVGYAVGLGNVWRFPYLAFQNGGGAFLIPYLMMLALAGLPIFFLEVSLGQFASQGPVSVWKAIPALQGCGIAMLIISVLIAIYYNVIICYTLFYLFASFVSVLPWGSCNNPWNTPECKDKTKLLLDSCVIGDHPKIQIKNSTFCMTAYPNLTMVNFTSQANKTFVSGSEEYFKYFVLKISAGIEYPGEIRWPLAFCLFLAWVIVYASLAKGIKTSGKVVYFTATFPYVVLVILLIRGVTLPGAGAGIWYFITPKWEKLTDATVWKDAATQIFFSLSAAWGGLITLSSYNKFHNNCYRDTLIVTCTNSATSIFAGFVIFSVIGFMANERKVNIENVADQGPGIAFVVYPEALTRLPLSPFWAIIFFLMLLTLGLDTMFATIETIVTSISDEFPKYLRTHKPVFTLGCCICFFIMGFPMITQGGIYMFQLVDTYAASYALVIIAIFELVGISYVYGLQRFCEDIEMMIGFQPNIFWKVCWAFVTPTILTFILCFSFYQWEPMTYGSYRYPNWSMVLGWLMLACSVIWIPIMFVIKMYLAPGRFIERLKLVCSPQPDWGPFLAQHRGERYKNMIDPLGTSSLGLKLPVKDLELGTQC
Assay: [3H]glycine transport by recombinant GlyT2 expressed in COS7 cells
Assay type: cell-based
Details: IC50, inhibition of [3H]-glycine transport, regular sodium, 150 mM NaCl
READOUT: IC50 (nM)
Record the value in nM, omitting the unit from your answer.

Identify measured IC50 associated with COc1cc(C(=O)NCC2(N(C)C)CCCC2)cc(OC)c1OCc1ccccc1
23.8

----------
Target: GlyT2 F478Y mutant (Rattus norvegicus, UniProt P58295, F478Y)
Construct: expressed in transfected cells; host or cells: COS7
Sequence (P58295 1-799 F478Y): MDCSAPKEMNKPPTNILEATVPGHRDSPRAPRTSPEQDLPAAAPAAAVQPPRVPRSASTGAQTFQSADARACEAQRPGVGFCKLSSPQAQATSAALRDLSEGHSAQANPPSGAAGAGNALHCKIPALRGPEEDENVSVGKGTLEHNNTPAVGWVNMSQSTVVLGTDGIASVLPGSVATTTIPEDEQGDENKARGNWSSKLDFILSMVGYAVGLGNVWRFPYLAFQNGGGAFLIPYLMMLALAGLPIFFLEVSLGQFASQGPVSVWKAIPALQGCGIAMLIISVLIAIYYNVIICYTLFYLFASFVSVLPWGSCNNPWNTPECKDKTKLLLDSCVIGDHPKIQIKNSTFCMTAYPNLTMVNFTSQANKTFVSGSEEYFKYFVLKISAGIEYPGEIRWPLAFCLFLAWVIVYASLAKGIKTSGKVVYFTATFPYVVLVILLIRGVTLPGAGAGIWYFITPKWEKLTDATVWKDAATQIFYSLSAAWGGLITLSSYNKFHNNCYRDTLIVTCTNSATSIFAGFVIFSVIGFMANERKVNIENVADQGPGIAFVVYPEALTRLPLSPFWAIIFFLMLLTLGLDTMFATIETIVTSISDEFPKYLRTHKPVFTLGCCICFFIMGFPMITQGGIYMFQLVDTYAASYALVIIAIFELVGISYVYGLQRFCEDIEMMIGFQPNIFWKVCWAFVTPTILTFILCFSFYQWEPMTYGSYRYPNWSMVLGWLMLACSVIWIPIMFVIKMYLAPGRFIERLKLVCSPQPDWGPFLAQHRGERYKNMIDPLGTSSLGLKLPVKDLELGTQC
Test: [3H]glycine transport by GlyT2 mutant in COS7 cells
Format: cell-based
Settings: read-out: IC50 (Table S1)
READOUT: pIC50
Entry type: numeric. Quantity: pIC50, the -log10 of concentration in molar units.

Please tell me the measured pIC50 for N[C@@H](COC(c1cccc(F)c1)c1ccccc1OCc1ccccc1)C(=O)O (stereo partly shown) ; system: GlyT2 F478Y mutant (Rattus norvegicus, UniProt P58295, F478Y).
7.30

----------
target: GlyT2 (Rattus norvegicus); construct: expressed in transfected cells; host or cells: COS7; assay: [3H]glycine transport by recombinant GlyT2 expressed in COS7 cells; assay type: cell-based; conditions: IC50, inhibition of glycine transport, COS7 cells, 10 μM glycine
READOUT: pIC50
Convention used: pIC50 is expressed as -log10 of the molar concentration.

MOLECULE	pIC50
N[C@@H](COC(c1cccc(F)c1)c1ccccc1OCc1ccccc1)C(=O)O (some centres unmarked) [ALX1393]	7.51

Then there is this molecule:
Consider the molecule COc1cc(C(=O)NCC2(N(C)C)CCCC2)cc(OC)c1OCc1ccccc1 [ORG25543] . State its measured pIC50.
7.75

----------
molecular target: GlyT2 I292C mutant (Rattus norvegicus, UniProt P58295, I292C); construct: expressed in transfected cells; host or cells: COS7; assay: [3H]glycine transport by GlyT2 mutant in COS7 cells; type: cell-based
READOUT: IC50 (nM)
Give just the number in nM; leave the unit off.

Give IC50 for the following molecule: COc1cc(C(=O)NCC2(N(C)C)CCCC2)cc(OC)c1OCc1ccccc1
24
